Conditions: in acetone, 300.23 K
Reported property: solubility (mole fraction)

QUERY: Entry `c1ccc2ccccc2c1` : reported solubility (mole fraction) = ?
RESULT: 0.233

---

Conditions: in n-butanol, 317.98 K
Reported property: solubility (mole fraction)
Answer with a number only.

QUERY: Entry `c1ccc2ccccc2c1` : reported solubility (mole fraction) = ?
RESULT: 0.139

---

Settings: in ethanol, 339.76 K
Reported property: solubility (mole fraction)

QUERY: Entry `c1ccc2ccccc2c1` : reported solubility (mole fraction) = ?
RESULT: 0.382

---

Details: in toluene, 331.35 K
Reported property: solubility (mole fraction)

QUERY: Entry `c1ccc2ccccc2c1` : reported solubility (mole fraction) = ?
RESULT: 0.637
